system: vancomycin-susceptible enterococci; test: broth micro-dilution, mean geometric MIC; format: cell-based, Enterococcus faecium and Enterococcus faecalis; conditions: enterococci, 24-hour incubation
Threshold rule: mean geometric MIC, Vancomycin Sensitive Strains greater than or equal to 0.2 µg/mL is criterion met; below that, criterion not met.

COMPOUND	GROUP
CNC(CC(C)C)C(=O)NC1C(=O)NC(CC(N)=O)C(=O)NC2C(=O)NC3C(=O)NC(C(=O)NC(C(=O)O)c4cc(O)cc(O)c4-c4cc3ccc4O)C(OC3CC(C)(N)C(O)C(C)O3)c3ccc(c(Cl)c3)Oc3cc2cc(c3OC2OC(CO)C(O)C(O)C2OC2CC(C)(NCc3ccc(Cc4ccccc4)c(OC)c3)C(O)C(C)O2)Oc2ccc(cc2Cl)C1O (stereo not drawn)	criterion not met
CNC(CC(C)C)C(=O)NC1C(=O)NC(CC(N)=O)C(=O)NC2C(=O)NC3C(=O)NC(C(=O)NC(C(=O)O)c4cc(O)cc(O)c4-c4cc3ccc4O)C(OC3CC(C)(N)C(O)C(C)O3)c3ccc(c(Cl)c3)Oc3cc2cc(c3OC2OC(CO)C(O)C(O)C2OC2CC(C)(NCc3cccc(Sc4ccc(C(C)(C)C)cc4)c3)C(O)C(C)O2)Oc2ccc(cc2Cl)C1O (stereo not drawn)	criterion not met
C=CCOc1ccc(CNC2(C)CC(OC3C(Oc4c5cc6cc4Oc4ccc(cc4Cl)C(OC4CC(C)(N)C(O)C(C)O4)C4NC(=O)C(NC(=O)C6NC(=O)C(CC(N)=O)NC(=O)C(NC(=O)C(CC(C)C)NC)C(O)c6ccc(c(Cl)c6)O5)c5ccc(O)c(c5)-c5c(O)cc(O)cc5C(C(=O)O)NC4=O)OC(CO)C(O)C3O)OC(C)C2O)cc1 (stereo not drawn)	criterion met
CNC(CC(C)C)C(=O)NC1C(=O)NC(CC(N)=O)C(=O)NC2C(=O)NC3C(=O)NC(C(=O)NC(C(=O)O)c4cc(O)cc(O)c4-c4cc3ccc4O)C(OC3CC(C)(N)C(O)C(C)O3)c3ccc(c(Cl)c3)Oc3cc2cc(c3OC2OC(CO)C(O)C(O)C2OC2CC(C)(NCCc3ccc4ccccc4c3)C(O)C(C)O2)Oc2ccc(cc2Cl)C1O (stereo not drawn)	criterion not met
CNC(CC(C)C)C(=O)NC1C(=O)NC(CC(N)=O)C(=O)NC2C(=O)NC3C(=O)NC(C(=O)NC(C(=O)O)c4cc(O)cc(O)c4-c4cc3ccc4O)C(OC3CC(C)(N)C(O)C(C)O3)c3ccc(c(Cl)c3)Oc3cc2cc(c3OC2OC(CO)C(O)C(O)C2OC2CC(C)(NCc3ccc(-c4ccc(C#N)cc4)cc3)C(O)C(C)O2)Oc2ccc(cc2Cl)C1O (stereo not drawn)	criterion not met
CNC(CC(C)C)C(=O)NC1C(=O)NC(CC(N)=O)C(=O)NC2C(=O)NC3C(=O)NC(C(=O)NC(C(=O)O)c4cc(O)cc(O)c4-c4cc3ccc4O)C(OC3CC(C)(N)C(O)C(C)O3)c3ccc(c(Cl)c3)Oc3cc2cc(c3OC2OC(CO)C(O)C(O)C2OC2CC(C)(NCCc3cccc(OCc4ccccc4)c3)C(O)C(C)O2)Oc2ccc(cc2Cl)C1O (stereo not drawn)	criterion met
CNC(CC(C)C)C(=O)NC1C(=O)NC(CC(N)=O)C(=O)NC2C(=O)NC3C(=O)NC(C(=O)NC(C(=O)O)c4cc(O)cc(O)c4-c4cc3ccc4O)C(OC3CC(C)(N)C(O)C(C)O3)c3ccc(c(Cl)c3)Oc3cc2cc(c3OC2OC(CO)C(O)C(O)C2OC2CC(C)(NCc3cc(OCc4ccccc4)ccc3OC)C(O)C(C)O2)Oc2ccc(cc2Cl)C1O (stereo not drawn)	criterion met
CNC(CC(C)C)C(=O)NC1C(=O)NC(CC(N)=O)C(=O)NC2C(=O)NC3C(=O)NC(C(=O)NC(C(=O)O)c4cc(O)cc(O)c4-c4cc3ccc4O)C(OC3CC(C)(N)C(O)C(C)O3)c3ccc(c(Cl)c3)Oc3cc2cc(c3OC2OC(CO)C(O)C(O)C2OC2CC(C)(NCc3cc(-c4ccccc4)nc4ccc(OC)cc34)C(O)C(C)O2)Oc2ccc(cc2Cl)C1O (stereo not drawn)	criterion met
CNC(CC(C)C)C(=O)NC1C(=O)NC(CC(N)=O)C(=O)NC2C(=O)NC3C(=O)NC(C(=O)NC(C(=O)O)c4cc(O)cc(O)c4-c4cc3ccc4O)C(OC3CC(C)(N)C(O)C(C)O3)c3ccc(c(Cl)c3)Oc3cc2cc(c3OC2OC(CO)C(O)C(O)C2OC2CC(C)(NCc3ccc(NC(=O)c4ccc(F)cc4)cc3)C(O)C(C)O2)Oc2ccc(cc2Cl)C1O (stereo not drawn)	criterion not met
CNC(CC(C)C)C(=O)NC1C(=O)NC(CC(N)=O)C(=O)NC2C(=O)NC3C(=O)NC(C(=O)NC(C(=O)O)c4cc(O)cc(O)c4-c4cc3ccc4O)C(OC3CC(C)(N)C(O)C(C)O3)c3ccc(c(Cl)c3)Oc3cc2cc(c3OC2OC(CO)C(O)C(O)C2OC2CC(C)(NCc3ccc(-c4ccccc4C)cc3)C(O)C(C)O2)Oc2ccc(cc2Cl)C1O (stereo not drawn)	criterion not met
CNC(CC(C)C)C(=O)NC1C(=O)NC(CC(N)=O)C(=O)NC2C(=O)NC3C(=O)NC(C(=O)NC(C(=O)O)c4cc(O)cc(O)c4-c4cc3ccc4O)C(OC3CC(C)(N)C(O)C(C)O3)c3ccc(c(Cl)c3)Oc3cc2cc(c3OC2OC(CO)C(O)C(O)C2OC2CC(C)(NCc3ccc(Oc4ccc(Cl)cc4)cc3)C(O)C(C)O2)Oc2ccc(cc2Cl)C1O (stereo not drawn)	criterion not met
CNC(CC(C)C)C(=O)NC1C(=O)NC(CC(N)=O)C(=O)NC2C(=O)NC3C(=O)NC(C(=O)NC(C(=O)O)c4cc(O)cc(O)c4-c4cc3ccc4O)C(OC3CC(C)(N)C(O)C(C)O3)c3ccc(c(Cl)c3)Oc3cc2cc(c3OC2OC(CO)C(O)C(O)C2OC2CC(C)(NCc3cccc4ccccc34)C(O)C(C)O2)Oc2ccc(cc2Cl)C1O (stereo not drawn)	criterion not met

Data origin: patent US5840684A
